- System under test: FGF14:Nav1.6 C-tail complex (Homo sapiens, UniProt Q92915+Q9UQD0)
- Construct: polymerase chain reaction (PCR) amplification of the FGF14 open reading frame (nt 1–855); C-terminal fragment of Nav1.6 (amino acids 1763–1976) fused with CD4ΔC-tail (amino acids 1–395); expressed in transfected cells
- Sequence (Q92915 1-252 isoform Q92915-2): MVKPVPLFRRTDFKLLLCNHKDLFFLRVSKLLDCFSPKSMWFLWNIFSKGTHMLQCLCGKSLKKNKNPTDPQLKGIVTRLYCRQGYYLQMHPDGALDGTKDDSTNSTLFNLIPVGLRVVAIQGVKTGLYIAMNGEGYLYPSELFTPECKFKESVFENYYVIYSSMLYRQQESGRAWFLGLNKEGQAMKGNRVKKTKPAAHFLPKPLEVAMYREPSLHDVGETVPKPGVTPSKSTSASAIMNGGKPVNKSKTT
- Sequence (Q9UQD0 1763-1976 limits assumed): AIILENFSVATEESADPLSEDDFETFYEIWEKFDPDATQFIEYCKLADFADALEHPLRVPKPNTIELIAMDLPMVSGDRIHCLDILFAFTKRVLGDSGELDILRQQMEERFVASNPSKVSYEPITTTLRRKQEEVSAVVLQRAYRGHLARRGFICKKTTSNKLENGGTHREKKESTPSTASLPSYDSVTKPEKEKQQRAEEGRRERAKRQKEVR
- Method notes: Split-luciferase complementation assay (LCA) in Clone V double stable HEK293 cells
- Type: cell-based
- Measurement parameters: CC_NCI screening; LCA, biological replicate Set 1; normalized to on-plate 0.3% DMSO controls
The label is y for Split Luciferase Assay Z-score Set 1 below 0.1 and n for Split Luciferase Assay Z-score Set 1 equal to or exceeding 0.1.

These recorded examples may help you get a feel for the data.
[
  {
    "Molecule": "CCCCCCCCCCCCSc1nc2c([nH]1)c(=O)n(C)c(=O)n2C",
    "Category label": "n"
  },
  {
    "Molecule": "Clc1ccc(Nc2nnc(Cc3ccncc3)c3ccccc23)cc1",
    "Category label": "y"
  },
  {
    "Molecule": "CNC(=O)c1ccccc1Sc1ccc2c(/C=C/c3ccccn3)n[nH]c2c1 [AXITINIB]",
    "Category label": "n"
  },
  {
    "Molecule": "O=P(O)(O)C(O)(Cn1ccnc1)P(=O)(O)O",
    "Category label": "y"
  },
  {
    "Molecule": "C=C1C[C@@H]2[C@H](CC[C@]3(C)C(=O)CC[C@@H]23)[C@@]2(C)C=CC(=O)C=C12",
    "Category label": "n"
  }
]

Is Split Luciferase Assay Z-score Set 1 of `COc1cccc(-c2cc(=O)c3ccccc3o2)c1N` strictly below 0.1?
n

Is Split Luciferase Assay Z-score Set 1 of `CC(=O)Nc1cccc(-n2c(=O)n(C3CC3)c(=O)c3c(Nc4ccc(I)cc4F)n(C)c(=O)c(C)c32)c1` strictly below 0.1?
n

Is Split Luciferase Assay Z-score Set 1 of CO[C@H]1C[C@@H]2CC[C@@H](C)[C@@](O)(O2)C(=O)C(=O)N2CCCC[C@H]2C(=O)O[C@H]([C@H](C)C[C@@H]2CC[C@@H](OC(=O)C(C)(CO)CO)[C@H](OC)C2)CC(=O)[C@H](C)/C=C(\C)[C@@H](O)[C@@H](OC)C(=O)[C@H](C)C[C@H](C)/C=C/C=C/C=C/1C [TEMSIROLIMUS] strictly below 0.1?
y

Is Split Luciferase Assay Z-score Set 1 of `Cc1ccc(-c2cc(C(F)(F)F)nn2-c2ccc(S(N)(=O)=O)cc2)cc1` strictly below 0.1?
y

====

- Tested on: Clone V cells
- Method notes: CellTiter Blue (CTB) cell viability counter-screen
- Measurement parameters: CC_NCI screening; normalized to on-plate 0.3% DMSO controls
Measured attribute: Toxicity Assay Z-score (CTB cell viability)
Output spec: single numeric token, no unit.

Solved cases below.
[
  {
    "Compound": "C[C@@H](Oc1cc(-c2cnn(C3CCNCC3)c2)cnc1N)c1c(Cl)ccc(F)c1Cl [Crizotinib, reference compound]",
    "System under test": "Clone V cells",
    "Experimental value": 0.27
  },
  {
    "Compound": "Cc1cc(Nc2cc(N3CCN(C)CC3)nc(Sc3ccc(NC(=O)C4CC4)cc3)n2)[nH]n1 [TOZASERTIB]",
    "System under test": "Clone V cells",
    "Experimental value": 0.86
  },
  {
    "Compound": "CC(=O)O[C@@]12CO[C@@H]1C[C@H](O)[C@@]1(C)C(=O)[C@H](O)C3=C(C)[C@@H](OC(=O)[C@H](O)[C@@H](NC(=O)OC(C)(C)C)c4ccccc4)C[C@@](O)([C@@H](OC(=O)c4ccccc4)[C@H]21)C3(C)C [Docetaxel]",
    "System under test": "Clone V cells",
    "Experimental value": 0.98
  },
  {
    "Compound": "Nc1ccccc1NC(=O)c1ccc(CNc2nccc(-c3cccnc3)n2)cc1 [MGCD0103]",
    "System under test": "Clone V cells",
    "Experimental value": 0.52
  },
  {
    "Compound": "CCCCCCCCc1ccc(CCC(N)(CO)CO)cc1 [Fingolimod]",
    "System under test": "Clone V cells",
    "Experimental value": 1.42
  },
  {
    "Compound": "CC(=O)OCCN1C(=O)c2c(C)nc3ccc(S(=O)(=O)N4CCOCC4)cc3c2C1=O [IVACHTIN]",
    "System under test": "Clone V cells",
    "Experimental value": 1.25
  },
  {
    "Compound": "CS(=O)(=O)c1ccc(C2=C(c3ccccc3)C(=O)OC2)cc1 [ROFECOXIB]",
    "System under test": "Clone V cells",
    "Experimental value": 1.28
  },
  {
    "Compound": "Cc1nc2c(O)cccc2c(=O)[nH]1 [NU 1025]",
    "System under test": "Clone V cells",
    "Experimental value": 1.56
  }
]

The reported value for CO[C@H]1C[C@@H]2CC[C@@H](C)[C@@](O)(O2)C(=O)C(=O)N2CCCC[C@H]2C(=O)O[C@H]([C@H](C)C[C@@H]2CC[C@@H](O)[C@H](OC)C2)CC(=O)[C@H](C)/C=C(\C)[C@@H](O)[C@@H](OC)C(=O)[C@H](C)C[C@H](C)/C=C/C=C/C=C/1C [Sirolimus] in terms of Toxicity Assay Z-score (CTB cell viability) is 0.38

The reported value for Oc1c2ccccc2c2c3c(cccc13)N=N2 [SP600125] in terms of Toxicity Assay Z-score (CTB cell viability) is 1.21
